Reported IC50 is given for each of the following binders.
Target: T1, human Nectin-4 protein (human, UniProt Q96NY8 32-349)
T1 construct: Purified protein used for coating in ELISA and as analyte in Octet; also called human Nectin-4 antigen
T1 sequence (looked up): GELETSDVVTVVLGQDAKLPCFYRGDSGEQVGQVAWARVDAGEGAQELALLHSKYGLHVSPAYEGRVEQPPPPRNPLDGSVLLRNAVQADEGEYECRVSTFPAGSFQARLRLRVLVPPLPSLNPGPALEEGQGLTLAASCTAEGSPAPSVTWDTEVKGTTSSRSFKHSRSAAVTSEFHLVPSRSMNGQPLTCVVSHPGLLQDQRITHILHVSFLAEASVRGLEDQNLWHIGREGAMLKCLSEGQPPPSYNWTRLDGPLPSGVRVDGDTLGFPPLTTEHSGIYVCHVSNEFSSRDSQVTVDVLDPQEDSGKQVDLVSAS
Experiment: competitive ELISA, coated Nectin-4; competitor biotin-labeled Nectin-1-hFc
Write down the numeric answer in µg/mL and omit the unit.

# count of solved cases: 3
Binder	Measure Name	Result Value
anti-human Nectin-4 humanized monoclonal antibody 74HZ (antibody, human IgG1, kappa, V domains shown, Human IgG1 heavy chain constant region, human kappa light chain constant region; expressed in CHO-E cells) VH: QVQLVQSGAEVKKPGSSVKVSCKASGYTFINYWMNWVRQAPGQGLEWIGMIHPSDSATRLNQSFQGRVTLTVDKSTSTAYMELSSLRSEDTAVYYCARWGNFYTVNAWYYFDYWGQGTLVTVSS VL: DIVITQSPDSLAVSLGERATINCKSSQTLLNSNTQKNYLAWYQQKPGQSPKLLFYFASTRESGVPDRFSGSGSGTDFTLTISSLQAEDVAVYFCQQHYSTPLTFGQGTKLEIKR	IC50	0.0272
anti-human Nectin-4 humanized monoclonal antibody 31HZ (antibody, human IgG1, kappa, V domains shown, Human IgG1 heavy chain constant region, human kappa light chain constant region; expressed in CHO-E cells) VH: QVQLVQSGAEVKKPGSSVKVSCKASGYTFTDYWMNWVRLAPGQGLEWIGMIHPSDSETRLNQKFQGRVTLTVDKSTSTAYMELSSLRSEDTAVYYCARWDFRIYYAMDYWGQGTLVTVSS VL: DVVITQSPDSLAVSLGERATINCKSSQSLLNTNSQKNYLAWYQQKPGQSPKLLVYFASTRESGVPDRFSGSGSGTDFTLTISSLQAEDVAVYFCQQHYSTPLTFGGGTKVEIKR	IC50	0.0276
Enfortumab (antibody, V domains shown) VH: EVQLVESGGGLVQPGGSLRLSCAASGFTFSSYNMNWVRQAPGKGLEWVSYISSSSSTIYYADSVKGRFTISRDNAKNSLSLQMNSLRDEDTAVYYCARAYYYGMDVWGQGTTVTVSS VL: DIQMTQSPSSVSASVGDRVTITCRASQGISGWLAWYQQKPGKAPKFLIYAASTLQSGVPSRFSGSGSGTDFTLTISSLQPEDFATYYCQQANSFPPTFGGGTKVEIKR	IC50	0.0271

Let us examine a further case.
Entry under review: anti-human Nectin-4 humanized monoclonal antibody 56HZ (antibody, human IgG1, kappa, V domains shown, Human IgG1 heavy chain constant region, human kappa light chain constant region; expressed in CHO-E cells) VH: QVQLQESGPGLVKPSQTLSLTCTVSGYFNSITSDYDWHWIRHHPGKGLEWMGYISFSGRTYYNPSLKSRVTISHDTSKNQFSLKLSSVTAADTAVYYCARGNYDGFDYWGQGTLVTVSS VL: DIVLTQSPATLSLSPGERATLSCRASQNIGTSIHWYQHKPGQSPRLLIKFASESISGIPARFSGSGSGTDFTLTISSLEPEDFAVYYCQQSKSWPTYTFGGGTKVEIKR . Reported IC50?
0.0269
